Test system: Salmonella typhimurium
experimentalProtocol: Antimicrobial activity against Salmonella enterica serovar Typhimurium CHS18 tolC::Kan with GyrA S38F mutation
Assay type: functional, Salmonella enterica subsp. enterica serovar Typhimurium
Here, each record is paired with measured MIC data.
Express your answer in µg/mL, writing the number without its unit.

1) CN1CCN(c2cc3c(cc2F)c(=O)c(C(=O)O)cn3-c2ccc(F)cc2)CC1 [DIFLOXACIN]	0.06
2) CO/N=C(\C(=O)N[C@@H]1C(=O)N2C(C(=O)O)=C(CSC(=O)c3ccco3)CS[C@H]12)c1csc(N)n1 [CEFTIOFUR]	0.12
3) CCn1cc(C(=O)O)c(=O)c2ccc(C)nc21 [NALIDIXIC ACID]	32
4) CC1(C)S[C@@H]2[C@H](NC(=O)[C@H](N)c3ccccc3)C(=O)N2[C@H]1C(=O)O [AMPICILLIN]	1
5) CCn1cc(C(=O)O)c(=O)c2cc(F)c(N3CCNCC3)nc21 [ENOXACIN]	0.03
6) CO[C@@]1(NC(=O)Cc2cccs2)C(=O)N2C(C(=O)O)=C(COC(N)=O)CS[C@@H]21 [CEFOXITIN]	1
7) O=C(O)c1cn(C2CC2)c2cc(N3CCNCC3)c(F)cc2c1=O [CIPROFLOXACIN]	0.03

GET /values?item= O=C(N[C@H](CO)[C@H](O)c1ccc([N+](=O)[O-])cc1)C(Cl)Cl [CHLORAMPHENICOL] &system= Salmonella typhimurium returns MIC: 2
